B1: Arabidopsis thaliana cryptochrome 2 (CRY2, UniProt Q96524), residues 1-535 fused after the Gal4 DNA-binding domain (Gal4BD-CRY2(535)); mutagenized window 321-412, Q96524 (parent)
chain: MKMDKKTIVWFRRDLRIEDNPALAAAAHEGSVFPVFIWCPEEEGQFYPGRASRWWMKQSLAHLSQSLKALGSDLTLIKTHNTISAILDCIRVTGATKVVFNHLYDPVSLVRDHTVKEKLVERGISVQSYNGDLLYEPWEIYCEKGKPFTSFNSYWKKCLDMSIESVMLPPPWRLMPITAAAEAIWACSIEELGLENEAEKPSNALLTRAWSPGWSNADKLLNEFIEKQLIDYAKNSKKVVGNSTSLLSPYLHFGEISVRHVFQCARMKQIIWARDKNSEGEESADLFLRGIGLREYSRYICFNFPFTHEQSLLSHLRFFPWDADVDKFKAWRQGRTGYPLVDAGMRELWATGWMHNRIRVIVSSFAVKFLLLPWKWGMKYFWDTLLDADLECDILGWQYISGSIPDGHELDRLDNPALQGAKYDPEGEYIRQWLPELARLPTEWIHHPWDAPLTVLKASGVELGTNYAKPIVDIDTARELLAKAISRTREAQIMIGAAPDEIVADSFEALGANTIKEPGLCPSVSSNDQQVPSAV

# Variants of: B1
# TEST_NAME: yeast two-hybrid growth selection (MaV203; Gal4BD-CRY2(1-535) library x Gal4AD-CIB1; URA3 reporter on SC -Trp/-Leu/-Ura) in the dark, deep sequencing before and after selection, Enrich2 scoring; three independent screens (one at 48 h, two …)
# RUN_CONDITIONS: with CIB1 (CRYPTOCHROME-INTERACTING BASIC-HELIX-LOOP-HELIX 1), dark (no blue light), screens 1, 3 and 4, Svar > 0 = enriched under dark selection for CRY2-CIB1 two-hybrid growth (URA3 reporter), < 0 = depleted, relative to wild type (whose scores are 0). 'The Enrich2 software calculates, parent: 0, not an affinity, scale: Enrich2 score, numbering: uniprot, sequence starts at 1
PROPERTY_NAME: enrichment

* Q398P | -0.641
* L371R | 1.98
* D393G | 2.3
* G402R | 1.69
* L372P | -1.5
* L348I | -0.199
* K368M | 2.28
* L372R | 0.499
* K379A | 1.5
* K368T | 2.52
* W353S | -0.64
* R359G | -0.386
* L348H | -1.52
* M378A | 0.99
* G352A | -1.47
* W376R | -1.3
* D322E | 0.472
* W331L | 1
* Y380F | 1.2
* W321R | 0.946
* V325I | -0.344
* Y399I | 2.5
* C392S | -0.465
* D393Y | -0.612
* L370P | -1.4
* Y399F | 1.58
* G402W | -0.485
* W382C | -0.025
* K375V | 1.44
* L385P | -1.22
* D383Y | -0.379
* G407A | -0.714
* P373Q | -0.644
* Y380D | -0.763
* V367M | 1.21
* Q398K | 2.11
* K379T | 0.481
* E347G | -1.39
* R346S | -1.36
* A323V | -0.61
* L386V | 0.483
* D383N | -0.384
* E409A | -0.172
* L395H | -0.769
* I404T | -0.507
* L340M | 0.444
* A366P | -1.03
* P373L | -0.618
* K327M | -0.448
* E391A | -0.592
* K327R | 0.118
* I394N | 2.39
* W397L | -0.429
* T336I | -1.58
* A343T | -0.823
* V325F | -0.532
* A330P | -1.93
* P339Q | -1.15
* D324Y | 0.863
* D383V | -0.206
* I361T | -0.646
* W376C | -0.498
* K375I | 0.307
* D389G | -1.23
* G334A | -1.45
* A388G | -1.33
* R357S | 2.1
* L371H | 2.16
* L386S | -0.716
* E391G | -1.1
* V325A | -0.239
* W397S | -1.08
* G337V | -1.13
* Q398L | 1.96
* W349R | 0.599
* F328Y | -0.296
* W376L | 0.0656
* L371F | 3.11
* L370I | -0.966
* P405R | 1.02
* S403C | 0.314
* M354K | -1.63
* D342N | -0.898
